The origin of these recorded values is patent US12037344B2.

# Measured On: TLR8 (Homo sapiens)
# Construct: human HEK-Blue cells co-expressing a TLR7 or TLR8 gene
# Sequence (Q9NR97 27-1041): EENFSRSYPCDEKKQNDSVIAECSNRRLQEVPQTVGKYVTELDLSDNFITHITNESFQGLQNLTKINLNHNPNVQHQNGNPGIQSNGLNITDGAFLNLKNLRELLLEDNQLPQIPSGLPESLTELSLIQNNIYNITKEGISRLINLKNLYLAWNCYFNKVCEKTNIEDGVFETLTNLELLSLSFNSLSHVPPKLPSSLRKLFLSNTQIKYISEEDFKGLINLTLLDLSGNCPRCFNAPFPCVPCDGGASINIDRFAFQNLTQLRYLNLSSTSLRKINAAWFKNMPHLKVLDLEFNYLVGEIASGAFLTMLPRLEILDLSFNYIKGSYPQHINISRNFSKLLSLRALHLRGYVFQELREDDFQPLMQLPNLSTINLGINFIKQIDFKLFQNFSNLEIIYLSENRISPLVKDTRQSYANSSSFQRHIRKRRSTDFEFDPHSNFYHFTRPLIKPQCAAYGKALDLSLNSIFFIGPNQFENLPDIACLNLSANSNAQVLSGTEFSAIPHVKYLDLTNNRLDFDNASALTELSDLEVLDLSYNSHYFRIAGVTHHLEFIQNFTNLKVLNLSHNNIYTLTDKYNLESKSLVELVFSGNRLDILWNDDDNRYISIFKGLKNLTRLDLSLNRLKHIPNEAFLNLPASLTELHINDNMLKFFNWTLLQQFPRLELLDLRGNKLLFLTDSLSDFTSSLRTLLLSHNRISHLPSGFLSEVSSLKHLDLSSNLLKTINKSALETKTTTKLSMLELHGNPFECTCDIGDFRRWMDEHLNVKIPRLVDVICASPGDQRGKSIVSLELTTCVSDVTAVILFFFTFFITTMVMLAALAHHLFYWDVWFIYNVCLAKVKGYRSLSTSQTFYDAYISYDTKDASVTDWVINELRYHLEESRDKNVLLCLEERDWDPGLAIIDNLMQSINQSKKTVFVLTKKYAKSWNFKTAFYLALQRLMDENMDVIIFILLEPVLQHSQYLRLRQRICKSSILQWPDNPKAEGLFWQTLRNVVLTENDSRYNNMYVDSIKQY
# Assay Notes: In vitro human TLR8 binding reporter assay (HEK-Blue, NF-kB/AP1-inducible SEAP)
# Format: cell-based
# Condition Context: activity range, read-out: TLR8 Agonist EC50
# Protocol: In Vitro Human TLR7 and TLR8 Binding Reporter Assays Logarithmically-growing human HEK-Blue cells co-expressing a TLR7 or TLR8 gene and a NF-kB/AP1-inducible SEAP (secreted embryonic alkaline phosphatase; Invivogen, San Diego, CA) reporter gene are added to individual wells of a 384-well plate (15,000 cells per 20 μL per well) and maintained for 24 h at 37° C., 5% CO2. […] All EC50 values (half-maximal effective concentration) are determined using proprietary data analysis software. […]
Quick reference: EC50 of the listed items.

Solved entries:
Nc1nc2cc(-c3ccn[nH]3)ccc2c2[nH]c(CCCO)cc12    > 100 µM
Nc1nc2cc(-c3cc[nH]n3)ccc2c2cn(C[C@@H](O)CO)nc12    > 100 µM
CC(C(=O)NCC1CCOCC1)n1cc2c(N)nc3cc(-c4ccn[nH]4)ccc3c2n1 (stereo not shown)    > 100 µM

Sure, the documented EC50 for CC(C)NC(=O)C(C)Cn1cc2c(N)nc3cc(-c4cc[nH]n4)ccc3c2n1 (stereo not shown) is > 100 µM

Item: CC(CC(=O)NCCO)n1cc2c(N)nc3cc(-c4cc[nH]n4)ccc3c2n1 (stereo not shown) | EC50: > 100 µM

`CS(=O)(=O)NCCc1cc2c(N)nc3cc(-c4cc[nH]n4)ccc3c2[nH]1` yielded EC50 of > 100 µM

The value of EC50 measured for the molecule `Nc1nc2cc(-c3cc[nH]n3)ccc2c2c1cnn2CCN1CC(F)(F)C1` turned out to be > 100 µM

Noted for `Nc1nc2cc(-c3cc[nH]n3)ccc2c2[nH]c(CN3[C@@H]4CC[C@H]3COC4)cc12` : its EC50 reads > 100 µM

Just so you know, measured EC50 for `C[C@@H](Cn1cc2c(n1)c(N)nc1cc(-c3cc[nH]n3)ccc12)NS(C)(=O)=O` came out at > 100 µM

molecule `CC(C)S(=O)(=O)NCCc1cc2c(N)nc3cc(-c4cc[nH]n4)ccc3c2[nH]1` , EC50 observed: > 100 µM

What the record says about `C[C@H](O)Cn1ncc2c(N)nc3cc(-c4cc[nH]n4)ccc3c21` : EC50 is > 100 µM

Given item `COCCn1cc2c(N)nc3cc(-c4ccn[nH]4)ccc3c2c1` , the value recorded as its EC50 is > 100 µM

The reported value for `Nc1nc2cc(-c3cc[nH]n3)ccc2c2nn(CCC(=O)NCCO)cc12` in terms of EC50 is > 100 µM

Reported EC50 ( `CCNC(=O)CCn1cc2c(N)nc3cc(-c4cc[nH]n4)ccc3c2n1` ) = > 100 µM

Entry `CCS(=O)(=O)NCCc1cc2c(N)nc3cc(-c4cc[nH]n4)ccc3c2[nH]1` ; EC50 = > 100 µM

Form: molecule = `CCn1c(CN)cc2c(N)nc3cc(-c4ccn[nH]4)ccc3c21` ; EC50 = > 100 µM

Field EC50 (entry `CC(C)(C(=O)N1CCCC1)n1cc2c(N)nc3cc(-c4cc[nH]n4)ccc3c2n1` ) reads > 100 µM

EC50 reading for `Nc1nc2cc(-c3cc[nH]n3)ccc2c2nn(CCO)cc12` : > 100 µM

CC(CC(=O)NCC1CCOCC1)n1cc2c(N)nc3cc(-c4cc[nH]n4)ccc3c2n1 (stereo not shown) yielded EC50 of > 100 µM
